assayComment: Phase 1a single ascending dose study: UV-4 in pooled urine, urinary recovery and renal clearance
Type: in vivo, human
conditionLabel: both sexes, human, urine, po, 30 mg, 30 mg single oral dose; Ar Mean
reportedEndpoint: CL renal (mL/min)
Numbers only here, please. The scale is mL/min.

// recorded CL renal for `COCCCCCCCCCN1C[C@H](O)[C@@H](O)[C@H](O)[C@H]1CO` : 210

====

assayComment: Phase 1a single ascending dose study: UV-4 plasma concentrations and PK parameters (LC-MS/MS, noncompartmental)
Format: in vivo
conditionLabel: both sexes, human, plasma, po, 360 mg, 360 mg single oral dose; Geo Mean; read-out: AUC(0-8)
reportedEndpoint: AUC(0-t)

// recorded AUC(0-t) for COCCCCCCCCCN1C[C@H](O)[C@@H](O)[C@H](O)[C@H]1CO [UV-4B] : 11800 ng·h/mL
